assay: Inhibition of P-gp (unknown origin) expressed in MCF7 cells assessed as increase in reversal of resistance to paclitaxel-induced cytotoxicity by measuring reduction in paclitaxel EC50 at 50 nM incubated for 72 hrs in presence of paclitaxel by SRB assay (Rvb = 11.5 nM)
Form field: pEC50 (one value per entry).
pEC50 is defined as minus the log10 of a concentration measured in mol/L.

Please review the following examples before continuing.
COc1cc2c(cc1OC)CN(CCc1ccc(-n3nnc(-c4cc(OC)c(OC)cc4NC(=O)c4ccc5ccccc5c4)n3)cc1)CC2; 8.00
COc1cc2c(cc1OC)CN(CCc1ccc(-n3nnc(-c4cc(OC)c(OC)cc4NC(=O)c4ccc(F)c(F)c4)n3)cc1)CC2; 8.00

Next molecule, pEC50 to be filled in.
Reported pEC50 for COc1cc2c(cc1OC)CN(CCc1ccc(-n3nnc(-c4cc(OC)c(OC)cc4NC(=O)c4cnc5ccccc5c4)n3)cc1)CC2 : what is it?
8.10
